assay: Oral bioavailability in rat (Sprague-Dawley); assay type: ADME, organism-based; settings: Sprague-Dawley, in vivo
measurementName: bioavailability (%)

Some entries whose results are on file:
O=S1(=O)NC(NC2CCC2)=Nc2cc(Cl)sc21 : 49
CC[C@@H](C)NC1=NS(=O)(=O)c2sc(Cl)cc2N1 : 90
CC(C)NC1=NS(=O)(=O)c2sc(Cl)cc2N1 : 65
CC[C@H](C)NC1=NS(=O)(=O)c2sc(Cl)cc2N1 : 49

[a] CCCNC1=NS(=O)(=O)c2sc(Cl)cc2N1
[b] CCC(C)(C)NC1=NS(=O)(=O)c2sc(Cl)cc2N1
### Prompt Return label of the item with the larger bioavailability. Candidates: a , b . Respond with the label that goes with your answer.
### Response a
(a: 69%, b: 47%)

* * *

species: Rattus norvegicus; test: Effective concentration require for relaxation of rat aorta rings; format: functional
measurementName: pEC50
Note on pEC50: it is the negative log10 of concentration, concentration in mol/L.

### Prompt Complete the entry with pEC50 for CNC1=NS(=O)(=O)c2sc(Cl)cc2N1
### Response 4.76

* * *

test system: Beta-TC6; assay: Percentage insulin release in vitro in beta-TC6 cells; format: functional; conditions: Mus musculus
# Emax per record follows
Numeric only. Scale: %

Some entries whose results are on file:
CC(C)NC1=NS(=O)(=O)c2sc(Cl)cc2N1 : 85
CC[C@@H](C)NC1=NS(=O)(=O)c2sc(Cl)cc2N1 : 82
O=S1(=O)NC(NC2CCC2)=Nc2cc(Cl)sc21 : 78
CC[C@H](C)NC1=NS(=O)(=O)c2sc(Cl)cc2N1 : 79
CC1(NC2=NS(=O)(=O)c3sc(Cl)cc3N2)CC1 [TIFENAZOXIDE] : 69

### Prompt Complete the entry with Emax for CC(C)(C)NC1=NS(=O)(=O)c2sc(Cl)cc2N1
### Response 77

### Prompt Complete the entry with Emax for CC1=Nc2ccc(Cl)cc2S(=O)(=O)N1 [DIAZOXIDE]
### Response 23

### Prompt Complete the entry with Emax for CCCNC1=NS(=O)(=O)c2sc(Cl)cc2N1
### Response 65

### Prompt Complete the entry with Emax for CCC(C)(C)NC1=NS(=O)(=O)c2sc(Cl)cc2N1
### Response 82

### Prompt Complete the entry with Emax for CC1(NC2=NS(=O)(=O)c3sc(Cl)cc3N2)CCC1
### Response 91

### Prompt Complete the entry with Emax for O=S1(=O)NC(NC2CCCC2)=Nc2cc(Cl)sc21
### Response 67

* * *

molecular target: Sulfonylurea receptor 1, Kir6.2 (Homo sapiens, UniProt Q09428+Q14654); experiment: Inhibition of [3H]glibenclamide binding to HEK293 cells co-expressing human Sulfonylurea receptor SUR1 and Inward rectifier K+ channel Kir6.2 without ATP; format: cell-based
Sequence (Q14654 whole entry): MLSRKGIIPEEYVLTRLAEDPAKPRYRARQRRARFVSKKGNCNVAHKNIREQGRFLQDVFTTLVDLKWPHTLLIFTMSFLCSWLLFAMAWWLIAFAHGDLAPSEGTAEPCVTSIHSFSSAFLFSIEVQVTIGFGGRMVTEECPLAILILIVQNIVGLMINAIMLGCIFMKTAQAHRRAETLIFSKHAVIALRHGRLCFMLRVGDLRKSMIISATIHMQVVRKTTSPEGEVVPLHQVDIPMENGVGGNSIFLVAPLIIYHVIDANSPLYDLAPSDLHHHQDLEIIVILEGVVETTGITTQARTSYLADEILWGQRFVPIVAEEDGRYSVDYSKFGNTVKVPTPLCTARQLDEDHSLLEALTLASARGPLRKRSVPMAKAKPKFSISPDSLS
Sequence (Q09428 whole entry): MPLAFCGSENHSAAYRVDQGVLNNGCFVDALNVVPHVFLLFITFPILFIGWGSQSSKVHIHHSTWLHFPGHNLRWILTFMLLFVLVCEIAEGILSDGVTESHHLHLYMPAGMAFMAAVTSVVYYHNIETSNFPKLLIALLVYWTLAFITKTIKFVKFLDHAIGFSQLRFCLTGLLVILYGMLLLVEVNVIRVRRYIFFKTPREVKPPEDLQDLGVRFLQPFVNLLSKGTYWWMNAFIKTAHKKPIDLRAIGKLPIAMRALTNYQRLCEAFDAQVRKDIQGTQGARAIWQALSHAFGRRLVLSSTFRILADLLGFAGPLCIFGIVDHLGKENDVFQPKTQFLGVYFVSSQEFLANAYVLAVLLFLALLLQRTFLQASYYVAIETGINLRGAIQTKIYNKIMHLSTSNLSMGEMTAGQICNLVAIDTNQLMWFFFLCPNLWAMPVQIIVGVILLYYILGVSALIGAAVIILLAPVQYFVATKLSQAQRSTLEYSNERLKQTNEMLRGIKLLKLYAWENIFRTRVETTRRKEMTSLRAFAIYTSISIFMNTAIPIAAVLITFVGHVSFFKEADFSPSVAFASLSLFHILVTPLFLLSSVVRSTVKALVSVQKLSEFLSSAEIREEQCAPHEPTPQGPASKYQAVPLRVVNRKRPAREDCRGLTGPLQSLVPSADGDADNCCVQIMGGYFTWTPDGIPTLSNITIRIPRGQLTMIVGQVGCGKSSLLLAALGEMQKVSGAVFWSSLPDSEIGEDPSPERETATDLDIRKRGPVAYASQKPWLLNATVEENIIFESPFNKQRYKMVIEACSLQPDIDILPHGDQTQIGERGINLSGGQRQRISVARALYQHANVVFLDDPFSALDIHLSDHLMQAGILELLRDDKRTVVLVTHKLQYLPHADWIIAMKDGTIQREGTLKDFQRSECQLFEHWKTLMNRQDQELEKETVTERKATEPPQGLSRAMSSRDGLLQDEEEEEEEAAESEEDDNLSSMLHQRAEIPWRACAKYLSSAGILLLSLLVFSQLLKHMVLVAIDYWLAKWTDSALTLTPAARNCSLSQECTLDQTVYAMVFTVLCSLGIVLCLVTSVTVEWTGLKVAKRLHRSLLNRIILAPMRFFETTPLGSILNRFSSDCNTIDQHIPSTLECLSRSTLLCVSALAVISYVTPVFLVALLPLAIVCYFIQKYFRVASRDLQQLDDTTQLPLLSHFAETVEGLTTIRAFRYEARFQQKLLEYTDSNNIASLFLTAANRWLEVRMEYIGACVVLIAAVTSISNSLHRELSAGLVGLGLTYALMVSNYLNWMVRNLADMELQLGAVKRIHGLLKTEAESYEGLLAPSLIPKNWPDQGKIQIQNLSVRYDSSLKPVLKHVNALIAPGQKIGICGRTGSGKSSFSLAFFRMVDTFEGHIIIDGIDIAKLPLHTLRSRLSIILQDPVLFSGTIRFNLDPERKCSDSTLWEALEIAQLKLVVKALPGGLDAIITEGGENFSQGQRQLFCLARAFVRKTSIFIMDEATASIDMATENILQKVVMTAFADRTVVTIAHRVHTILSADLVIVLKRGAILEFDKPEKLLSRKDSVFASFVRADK
measurementName: IC50 (µM)

CC[C@@H](C)NC1=NS(=O)(=O)c2sc(Cl)cc2N1 : 487
CC[C@H](C)NC1=NS(=O)(=O)c2sc(Cl)cc2N1 : 420

* * *

test: Half life after oral administration to Sprague-Dawley rats; type: ADME, organism-based; conditions: rat, in vivo
measurementName: half-life (h)

Some entries whose results are on file:
CCC(C)(C)NC1=NS(=O)(=O)c2sc(Cl)cc2N1 : 1.65
O=S1(=O)NC(NC2CCC2)=Nc2cc(Cl)sc21 : 1.88
CC[C@@H](C)NC1=NS(=O)(=O)c2sc(Cl)cc2N1 : 2.72
CC[C@H](C)NC1=NS(=O)(=O)c2sc(Cl)cc2N1 : 0.967

[a] CCCNC1=NS(=O)(=O)c2sc(Cl)cc2N1
[b] CC(C)NC1=NS(=O)(=O)c2sc(Cl)cc2N1
### Prompt Return label of the item with the larger half-life. Candidates: a , b . Respond with the label that goes with your answer.
### Response b
(b: 2.73 h, a: 1.2 h)
